Numbers sourced from paper PMC4336329.

Target: human ether-à-go-go-related gene (hERG) potassium channel (human);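 further: peak tail current of the secondary pulse compared with the same well before compound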
Sequence (Q12809 whole entry, looked up): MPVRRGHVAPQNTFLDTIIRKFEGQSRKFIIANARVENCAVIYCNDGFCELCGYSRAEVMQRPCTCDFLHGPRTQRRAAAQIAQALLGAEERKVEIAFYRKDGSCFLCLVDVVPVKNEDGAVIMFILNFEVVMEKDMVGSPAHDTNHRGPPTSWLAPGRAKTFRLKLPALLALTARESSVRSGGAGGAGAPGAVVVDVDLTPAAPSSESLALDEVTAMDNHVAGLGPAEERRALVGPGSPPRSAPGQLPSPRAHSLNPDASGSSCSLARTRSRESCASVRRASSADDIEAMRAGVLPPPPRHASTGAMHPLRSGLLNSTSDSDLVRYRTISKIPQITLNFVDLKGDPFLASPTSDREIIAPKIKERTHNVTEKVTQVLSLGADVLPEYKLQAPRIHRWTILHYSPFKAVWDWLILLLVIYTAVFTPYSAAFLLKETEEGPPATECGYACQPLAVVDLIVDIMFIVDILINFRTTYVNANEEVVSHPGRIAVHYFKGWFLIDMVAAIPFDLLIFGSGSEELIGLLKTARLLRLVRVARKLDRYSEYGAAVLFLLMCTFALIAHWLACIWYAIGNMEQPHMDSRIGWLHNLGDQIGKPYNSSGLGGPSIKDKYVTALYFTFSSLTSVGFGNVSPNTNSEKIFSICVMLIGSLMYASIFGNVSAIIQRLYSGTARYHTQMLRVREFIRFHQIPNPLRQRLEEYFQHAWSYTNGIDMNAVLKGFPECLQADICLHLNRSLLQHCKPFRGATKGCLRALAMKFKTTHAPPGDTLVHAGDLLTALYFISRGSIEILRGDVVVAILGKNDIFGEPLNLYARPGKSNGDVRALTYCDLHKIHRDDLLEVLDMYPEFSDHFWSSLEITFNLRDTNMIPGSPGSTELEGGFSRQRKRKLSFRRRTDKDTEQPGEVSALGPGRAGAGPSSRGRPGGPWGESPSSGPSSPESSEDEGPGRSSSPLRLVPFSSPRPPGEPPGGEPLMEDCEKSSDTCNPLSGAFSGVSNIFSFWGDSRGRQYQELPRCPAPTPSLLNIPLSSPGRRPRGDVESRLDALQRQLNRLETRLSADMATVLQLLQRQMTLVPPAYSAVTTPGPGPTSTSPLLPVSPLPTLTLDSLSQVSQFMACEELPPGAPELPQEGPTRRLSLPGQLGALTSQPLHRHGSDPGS
Assay: primary screen, population patch clamp on CHO cells stably expressing hERG; higher = less effect of the substance
The whole screen tested about 310,000 compounds, of which about 14,000 (4.5%) showed an effect of 50% or more. The effect is printed as a negative number. The sample as a whole holds a higher share of strong results than the screen did.
Parameter hERG current change (%, negative = inhibition) at 10uM: see the listing below.
Report the figure in % without appending any unit label.

// below: answered compounds
Cc1cc(C)c2c(N)c3ccccc3nc2n1 | -53.9
CCO.Cc1nn(-c2ccccn2)c2c1C(c1ccsc1)C1=C(CCCC1=O)N2 (stereo not shown) | -16.1
Cc1c(/C=N/O)c2ccccc2n1C | 5.39
Cc1cc(C)c2nc(-n3nc(C)cc3N)cc(C)c2c1 | 20
Cc1ccc(N(CC(O)COCc2ccco2)S(=O)(=O)c2ccc(C)cc2)cc1 (stereo not shown) | -11.1

*Q* Entry under review: `O=C(CNC(=S)N(CCCN1CCOCC1)Cc1cccs1)NCc1ccccc1Cl` . Reported hERG current change (%, negative = inhibition) at 10uM?
*A* -54.2

*Q* Entry under review: Cc1ccc(C(OCC(O)CN2CCCCC2CO)c2ccccc2)cc1 (stereo not shown) . Reported hERG current change (%, negative = inhibition) at 10uM?
*A* -62.8

*Q* Entry under review: `CCOC(=O)c1[nH]cnc1C(=O)Nc1cccc(OC)c1` . Reported hERG current change (%, negative = inhibition) at 10uM?
*A* 2.14

*Q* Entry under review: `Cc1cccc2c(C(=O)O)c3cccc(C)c3nc12` . Reported hERG current change (%, negative = inhibition) at 10uM?
*A* 1.39

*Q* Entry under review: `Cc1cc(C)c2c(N)c3cccc(C)c3nc2n1` . Reported hERG current change (%, negative = inhibition) at 10uM?
*A* -64.7

*Q* Entry under review: Cc1ccccc1OCCNc1cc(N2CC(C)NC(C)C2)ccc1[N+](=O)[O-] (stereo not shown) . Reported hERG current change (%, negative = inhibition) at 10uM?
*A* -12.3

* * *

Target: human ether-à-go-go-related gene (hERG) potassium channel (human);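 further: peak tail current of the secondary pulse compared with the same well before compound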
Test: primary screen, population patch clamp on CHO cells stably expressing hERG; higher = less effect of the substance
Method: Briefly, Chinese hamster ovary (CHO) cells stably expressing the hERG channel were dislodged from tissue culture flasks and dispensed into PPC plates. […] During the recording, background leak currents were estimated by a 100 ms step to -80 mV from an initial holding potential of -70 mV and subtracted from the subsequent current measurement. The campaign was conducted in two phases using slight differences in recording protocol. […]
Screen size: about 310,000 compounds; about 14,000 (4.5%) showed an effect of 50% or more. The effect is printed as a negative number. The list comes from a sample in which strong results are over-represented; it also holds close analogues and randomly drawn compounds.
Parameter hERG current change (%, negative = inhibition) at 10uM: see the listing below.

// below: answered compounds
O=C(NCCc1nc2ccccc2[nH]1)/C(=C/c1ccco1)NC(=O)c1ccc(Br)cc1 | -69.9%
O=C(Nc1ccc(Br)c(C(F)(F)F)c1)c1ccc(C(F)(F)F)cc1 | 11.8%
O=C(Nc1ccc(Br)c(C(F)(F)F)c1)c1ccccc1 | 27.3%
O=C(CNC(=O)c1ccc(Br)cc1)NCCc1nc2ccccc2[nH]1 | -6.76%
O=C(NCCc1nc2ccccc2[nH]1)/C(=C/c1ccco1)NC(=O)c1ccccc1Br | -64.9%

*Q* Entry under review: COc1ccc(OC)c(C2/C(=C(/O)c3ccc(C)cc3)C(=O)C(=O)N2Cc2ccco2)c1 (stereo not drawn) . Reported hERG current change (%, negative = inhibition) at 10uM?
*A* -7.22%
